pIC50: −log10 of the molar value.
Quick record of pIC50 values for Cholinesterase (Equus caballus, UniProt P81908).

compound: COc1ccc2c(c1)CCC(Cc1cc[n+](CC3CCCCC3)cc1C(C)=O)C2=O (stereo not given)
qualifying.sign: =
pIC50: 6.47
//
compound: COc1cc2c(cc1OC)C(=O)C(Cc1cc[n+](CCc3ccccc3)cc1C(N)=O)C2 (stereo not given)
qualifying.sign: <
pIC50: 5.00
//
compound: COc1cc2c(cc1OC)C(=O)C(CC1C=CN(Cc3cccc(Cl)c3)C=C1C(N)=O)C2 (stereo in doubt; 23h-B)
qualifying.sign: =
pIC50: 4.70
//
compound: COc1ccc(C(=O)CCC2C=CN(Cc3cccc(Cl)c3)C=C2C(C)=O)cc1OC (stereo not given)
qualifying.sign: <
pIC50: 5.00
//
compound: COc1ccc(C(=O)CCc2cc[n+](Cc3cccc(Cl)c3)cc2C#N)cc1OC
qualifying.sign: =
pIC50: 5.37

---

Target: Cholinesterase (Equus caballus, UniProt P81908)
Sequence (P81908 whole entry): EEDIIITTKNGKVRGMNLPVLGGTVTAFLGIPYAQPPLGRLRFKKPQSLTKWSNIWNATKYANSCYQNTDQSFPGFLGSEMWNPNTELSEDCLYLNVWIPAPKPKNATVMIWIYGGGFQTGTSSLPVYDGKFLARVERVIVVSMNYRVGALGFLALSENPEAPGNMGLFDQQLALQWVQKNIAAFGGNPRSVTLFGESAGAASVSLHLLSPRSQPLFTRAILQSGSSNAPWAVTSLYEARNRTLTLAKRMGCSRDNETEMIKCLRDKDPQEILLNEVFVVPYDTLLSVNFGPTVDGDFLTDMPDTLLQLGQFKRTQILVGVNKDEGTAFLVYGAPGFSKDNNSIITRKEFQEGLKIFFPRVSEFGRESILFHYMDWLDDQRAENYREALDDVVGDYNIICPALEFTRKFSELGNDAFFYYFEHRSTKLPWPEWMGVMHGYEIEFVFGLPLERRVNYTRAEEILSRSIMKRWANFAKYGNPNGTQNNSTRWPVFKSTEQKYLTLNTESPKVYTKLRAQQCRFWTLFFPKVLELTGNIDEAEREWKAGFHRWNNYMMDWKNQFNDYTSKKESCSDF
pIC50: −log10 of the molar value.

molecule: CC(=O)c1c[n+](Cc2cccc(Cl)c2)ccc1CC1Cc2cc(O)ccc2C1=O (stereo not drawn)
qualifying.sign: <
pIC50: 5.00
//
molecule: COc1cc2c(cc1OC)C(=O)C(CC1C=CN(Cc3ccccc3)C=C1C(C)=O)CC2 (stereo in doubt; 24a-D)
qualifying.sign: =
pIC50: 5.04
//
molecule: COC(=O)c1c[n+](Cc2cccc(Cl)c2)ccc1CCC(=O)c1ccc(OC)c(OC)c1
qualifying.sign: =
pIC50: 5.69
//
molecule: COc1cc2c(cc1OC)C(=O)C(CCCc1cc[n+](Cc3cccc(Cl)c3)cc1C(N)=O)C2 (stereo not drawn)
qualifying.sign: =
pIC50: 5.49
//
molecule: COc1ccc2c(c1)CCC(Cc1cc[n+](Cc3ccccc3C)cc1C(N)=O)C2=O (stereo not drawn)
qualifying.sign: =
pIC50: 5.04
//
molecule: COc1ccc2c(c1)CCC(CC1C=CN(Cc3ccccc3C)C=C1C(N)=O)C2=O (stereo not drawn)
qualifying.sign: <
pIC50: 5.00
//
molecule: COC(=O)c1ccccc1C[n+]1ccc(CC2Cc3cc(OC)c(OC)cc3C2=O)c(C(=O)Oc2c(Cl)cc(Cl)cc2Cl)c1 (stereo not drawn)
qualifying.sign: =
pIC50: 6.43
//
molecule: COc1ccc(C(=O)CCCCc2cc[n+](Cc3cccc(Cl)c3)cc2C(N)=O)cc1OC
qualifying.sign: <
pIC50: 5.00
//
molecule: COc1cc2c(cc1OC)C(=O)C(Cc1cc[n+](Cc3cccc(O)c3)cc1C(N)=O)C2 (stereo not drawn)
qualifying.sign: =
pIC50: 5.27
//
molecule: COc1ccc(C(=O)CCC2C=CN(Cc3cccc(Cl)c3)C=C2C(N)=O)cc1OC (stereo not drawn)
qualifying.sign: <
pIC50: 5.00
//
molecule: CC(=O)c1c[n+](Cc2ccccc2C)ccc1CC1Cc2cc(OCC(F)(F)F)ccc2C1=O (stereo not drawn)
qualifying.sign: =
pIC50: 5.38
//
molecule: CC(=O)C1=CN(Cc2cccc(Cl)c2)C=CC1CC1Cc2cc(F)ccc2C1=O (stereo not drawn)
qualifying.sign: <
pIC50: 5.00
//
molecule: COc1cc2c(cc1OC)C(=O)C(CC1C=CN(Cc3ccccc3)C=C1C(C)=O)CC2 (stereo in doubt; 24a-B)
qualifying.sign: =
pIC50: 5.74
//
molecule: COc1cc2c(cc1O)C(=O)C(Cc1cc[n+](Cc3cccc(Cl)c3)cc1C(C)=O)C2 (stereo not drawn)
qualifying.sign: <
pIC50: 5.00
//
molecule: CCC[n+]1ccc(CC2CCc3cc(OC)ccc3C2=O)c(C(C)=O)c1 (stereo not drawn)
qualifying.sign: <
pIC50: 5.00
//
molecule: COc1ccc2c(c1)CCC(CC1C=CN(Cc3cccc(C(F)(F)F)c3)C=C1C(C)=O)C2=O (stereo not drawn)
qualifying.sign: <
pIC50: 5.00
//
molecule: COc1ccc(C(=O)CCC2C=CN(Cc3cccc(Cl)c3)C=C2C#N)cc1OC (stereo not drawn)
qualifying.sign: <
pIC50: 5.00
//
molecule: COc1cc2c(cc1OC)C(=O)C(Cc1cc[n+](Cc3ccc(S(N)(=O)=O)cc3)cc1C(N)=O)C2 (stereo not drawn)
qualifying.sign: <
pIC50: 5.00

---

Assay: Selectivity index, ratio of IC50 for equine serum BChE to IC50 for human erythrocyte AChE
Reported Ratio IC50 values for a set of compounds
experimental.readout: Ratio IC50

compound: COc1ccc2c(c1)CCC(Cc1cc[n+](Cc3ccccc3Cl)cc1C(C)=O)C2=O (centres undefined)
readout.number: 8.6
//
compound: COc1ccc2c(c1)CCC(Cc1cc[n+](Cc3ccc(C)cc3)cc1C(C)=O)C2=O (centres undefined)
readout.number: 7.4
//
compound: COc1ccc2c(c1)CCC(Cc1cc[n+](CC3CCCCC3)cc1C(C)=O)C2=O (centres undefined)
readout.number: 1.6
//
compound: COc1ccc2c(c1)CCC(Cc1cc[n+](Cc3ccccc3F)cc1C(C)=O)C2=O (centres undefined)
readout.number: 11
//
compound: COc1ccc2c(c1)CCC(Cc1cc[n+](Cc3ccccc3C)cc1C(F)(F)F)C2=O (centres undefined)
readout.number: 9.2
//
compound: COc1ccc2c(c1)CCC(Cc1cc[n+](Cc3cccc(Cl)c3)cc1C(C)=O)C2=O (centres undefined)
readout.number: 6.9
//
compound: COc1ccc2c(c1)CCC(Cc1cc[n+](Cc3cccc(F)c3)cc1C(C)=O)C2=O (centres undefined)
readout.number: 7.5
//
compound: COc1ccc2c(c1)CCC(Cc1cc[n+](Cc3ccc(Cl)cc3)cc1C(C)=O)C2=O (centres undefined)
readout.number: 10.7
//
compound: COc1ccc2c(c1)CCC(Cc1cc[n+](Cc3cccc(C(F)(F)F)c3)cc1C(C)=O)C2=O (centres undefined)
readout.number: 18

---

Form: system (Cholinesterase (Equus caballus)), quantity (pIC50), values below.
pIC50: −log10 of the molar value.
experimental.readout: pIC50

compound: COc1ccc(C(=O)CCc2cc[n+](Cc3cccc(Cl)c3)cc2C(C)=O)cc1OC
experimental.readout: pIC50
qualifying.sign: =
readout.number: 5.50
//
compound: COc1ccc2c(c1)CCC(CC1C=CN(Cc3ccc(Cl)cc3)C=C1C(C)=O)C2=O (stereo not given)
experimental.readout: pIC50
qualifying.sign: <
readout.number: 5.00
//
compound: COc1cc2c(cc1OC)C(=O)C(Cc1cc[n+](Cc3nc4ccccc4o3)cc1C(N)=O)C2 (stereo not given)
experimental.readout: pIC50
qualifying.sign: <
readout.number: 5.00
//
compound: COc1ccc(C(=O)CCc2cc[n+](Cc3cccc(F)c3)cc2C#N)cc1OC
experimental.readout: pIC50
qualifying.sign: <
readout.number: 5.00
//
compound: COc1cc2c(cc1OC)C(=O)C(Cc1cc[n+](Cc3cccc(Cl)c3)cc1C(=O)O)C2 (stereo not given)
experimental.readout: pIC50
qualifying.sign: <
readout.number: 5.00
//
compound: CNC(=O)c1c[n+](Cc2ccccc2C)ccc1CC1CCc2cc(OC)ccc2C1=O (stereo not given)
experimental.readout: pIC50
qualifying.sign: =
readout.number: 5.60
//
compound: COc1cc2c(cc1OC)C(=O)C(CC1C=CN(Cc3ccccc3)C=C1C(C)=O)CC2 (stereo in doubt; 24a-C)
experimental.readout: pIC50
qualifying.sign: =
readout.number: 5.78
//
compound: COc1ccc2c(c1)CCC(CC1C=CN(Cc3ccc(C)cc3)C=C1C(C)=O)C2=O (stereo not given)
experimental.readout: pIC50
qualifying.sign: <
readout.number: 5.00
//
compound: COc1ccc2c(c1)CCC(Cc1cc[n+](Cc3ccccc3C)cc1C(F)(F)F)C2=O (stereo not given)
experimental.readout: pIC50
qualifying.sign: =
readout.number: 5.65
//
compound: COc1ccc(C(=O)CCc2cc[n+](Cc3ccc(Cl)cc3)cc2C#N)cc1OC
experimental.readout: pIC50
qualifying.sign: <
readout.number: 5.00
//
compound: COc1ccc(C(=O)CCc2cc[n+](Cc3cccc(Cl)c3)cc2C(N)=O)cc1OC
experimental.readout: pIC50
qualifying.sign: <
readout.number: 5.00
//
compound: COC(=O)C1=CN(Cc2cccc(Cl)c2)C=CC1CCC(=O)c1ccc(OC)c(OC)c1 (stereo not given)
experimental.readout: pIC50
qualifying.sign: <
readout.number: 5.00
//
compound: COc1ccc2c(c1)CCC(Cc1cc[n+](Cc3ccccc3Cl)cc1C(N)=O)C2=O (stereo not given)
experimental.readout: pIC50
qualifying.sign: =
readout.number: 5.58
//
compound: COc1cc2c(cc1OC)C(=O)C(Cc1cc[n+](Cc3cccc(C)n3)cc1C(N)=O)C2 (stereo not given)
experimental.readout: pIC50
qualifying.sign: <
readout.number: 5.00
//
compound: COc1cc2c(cc1OC)C(=O)C(CC1C=CN(Cc3cccc(Cl)c3)C=C1C(N)=O)C2 (stereo in doubt; 23h-A)
experimental.readout: pIC50
qualifying.sign: =
readout.number: 4.84
